The following compounds are shown together with reported Ki values.
target: FKBP12 (Homo sapiens, UniProt P62942); test: FKBP12 Binding Assay: inhibition of FKBP rotomase activity (cis-N-succinyl-Ala-Ala-Pro-Phe-p-nitroanilide / chymotrypsin), apparent Ki; format: biochemical; conditions: Table 2, formula II', compound 0.1 nM-10 μM
Sequence (P62942 whole entry): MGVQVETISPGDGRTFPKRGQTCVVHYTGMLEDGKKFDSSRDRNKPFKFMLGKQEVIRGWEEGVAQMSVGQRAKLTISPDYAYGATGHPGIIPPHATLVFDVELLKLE
Field: numeric (nM). Do not append units.

Illustrative cases are given below, each with its answer.
- compound: "C=CCOC/C=C/C(CCCc1ccccc1)OC(=O)[C@@H]1CCCCN1C(=O)C(=O)c1cc(OC)c(OC)c(OC)c1 (some centres unmarked)"
  target.entity: "FKBP12 (Homo sapiens, UniProt P62942)"
  metric.name: "Ki"
  observed.measurement: 2.8
- compound: "CCC(OC(=O)[C@@H]1CCCCN1C(=O)C(=O)c1cc(OC)c(OC)c(OC)c1)c1cc(OCc2ccncc2)c(OCc2ccncc2)c(OCc2ccncc2)c1 (some centres unmarked) [compound 74]"
  target.entity: "FKBP12 (Homo sapiens, UniProt P62942)"
  metric.name: "Ki"
  observed.measurement: 18
- compound: "C=CCC(OC(=O)[C@@H]1CCCCN1C(=O)C(=O)c1cc(OC)c(OC)c(OC)c1)c1cc(OCc2ccncc2)c(OCc2ccncc2)c(OCc2ccncc2)c1 (some centres unmarked) [compound 76]"
  target.entity: "FKBP12 (Homo sapiens, UniProt P62942)"
  metric.name: "Ki"
  observed.measurement: 14
- compound: "COc1cc(C(=O)C(=O)N2CCCC[C@H]2C(=O)OC(CCCc2ccccc2)CCCc2ccc(C(=O)N(C)C)cc2)cc(OC)c1OC (some centres unmarked)"
  target.entity: "FKBP12 (Homo sapiens, UniProt P62942)"
  metric.name: "Ki"
  observed.measurement: 5

Request: # input compound: COc1cc(C(=O)C(=O)N2CCCC[C@H]2C(=O)OC(c2cc(OCc3ccncc3)c(OCc3ccncc3)c(OCc3ccncc3)c2)C(C)C)cc(OC)c1OC (some centres unmarked) [compound 115] ; wanted: its Ki
Result: 0.39

Request: # input compound: COc1cc(C(=O)C(=O)N2CCCC[C@H]2C(=O)OC(c2ccccc2)c2cccc(Oc3ccccc3)c2)cc(OC)c1OC (some centres unmarked) ; wanted: its Ki
Result: 4000

Request: # input compound: CCC(OC(=O)[C@@H]1CCCCN1C(=O)C(=O)c1cc(OC)c(OC)c(OC)c1)c1cc(OCc2ccncc2)c(OCc2ccncc2)c(OCc2ccncc2)c1 (some centres unmarked) [compound 75] ; wanted: its Ki
Result: 12

Request: # input compound: COc1cc(C(=O)C(=O)N2CCCC[C@H]2C(=O)OC(C)c2cc(OCc3ccncc3)cc(OCc3ccncc3)c2)cc(OC)c1OC (some centres unmarked) [compound 71] ; wanted: its Ki
Result: 14

Request: # input compound: CC(C)(C)C(=O)C(=O)N1CCC[C@H]1C(=O)OC(CCCc1ccccc1)CCCc1cccnc1 (some centres unmarked) ; wanted: its Ki
Result: 340

Request: # input compound: COc1cc(C(=O)C(=O)N2CCCC[C@H]2C(=O)OC(C)c2ccc(OCc3ccncc3)c(OCc3ccncc3)c2)cc(OC)c1OC (some centres unmarked) ; wanted: its Ki
Result: 35

Request: # input compound: COc1cc(C(=O)C(=O)N2CCCC[C@H]2C(=O)OC(CCCc2ccccc2)c2cccc(C(=O)c3cccnc3)c2)cc(OC)c1OC (some centres unmarked) [compound 91] ; wanted: its Ki
Result: 24

Request: # input compound: COc1cc(C(=O)C(=O)N2CCCC[C@H]2C(=O)OC(CCCc2ccccc2)CCC(C)c2ccccc2)cc(OC)c1OC (some centres unmarked) ; wanted: its Ki
Result: 20

Request: # input compound: CCCC(OC(=O)[C@@H]1CCCCN1C(=O)C(=O)c1cc(OC)c(OC)c(OC)c1)c1cc(OCc2ccncc2)c(OCc2ccncc2)c(OCc2ccncc2)c1 (some centres unmarked) [compound 81] ; wanted: its Ki
Result: 5

Sourced from patent US6124328A
